target-entity: T1, mouse PRLR on HEK293/mPRLR cells (Mus musculus, UniProt Q08501)
T1 construct: HA; expressed in transfected cells; host or cells: HEK293
T1 sequence (Q08501 20-608): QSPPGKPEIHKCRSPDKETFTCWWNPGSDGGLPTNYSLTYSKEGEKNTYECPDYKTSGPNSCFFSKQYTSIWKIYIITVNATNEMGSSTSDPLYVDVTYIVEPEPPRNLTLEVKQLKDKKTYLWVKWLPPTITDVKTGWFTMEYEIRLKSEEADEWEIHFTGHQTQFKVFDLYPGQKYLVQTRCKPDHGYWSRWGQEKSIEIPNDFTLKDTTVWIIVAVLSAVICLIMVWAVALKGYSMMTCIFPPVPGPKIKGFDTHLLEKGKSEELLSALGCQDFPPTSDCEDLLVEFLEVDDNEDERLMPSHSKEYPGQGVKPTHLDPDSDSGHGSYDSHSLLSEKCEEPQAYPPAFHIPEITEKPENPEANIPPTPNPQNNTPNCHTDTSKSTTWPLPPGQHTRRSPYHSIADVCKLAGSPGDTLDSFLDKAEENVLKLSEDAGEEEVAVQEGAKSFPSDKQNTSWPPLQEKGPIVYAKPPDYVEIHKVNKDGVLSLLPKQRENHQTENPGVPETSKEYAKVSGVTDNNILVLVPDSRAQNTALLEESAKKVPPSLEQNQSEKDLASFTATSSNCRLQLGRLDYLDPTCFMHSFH
test-details: FACS cell surface binding
parameter: FACS Cell Binding (Fold Above Background)
A number alone suffices; assume Fold Above Background.

Asked: I'd like to know its FACS Cell Binding. The molecule in question is H1H6782P: fully human anti-PRLR antibody, non-blocking; HCVR/LCVR SEQ ID NOs 66/74 (antibody, V domains shown) VH: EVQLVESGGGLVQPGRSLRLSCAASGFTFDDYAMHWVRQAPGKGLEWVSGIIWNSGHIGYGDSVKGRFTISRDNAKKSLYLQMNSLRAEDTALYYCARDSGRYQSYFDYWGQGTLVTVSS VL: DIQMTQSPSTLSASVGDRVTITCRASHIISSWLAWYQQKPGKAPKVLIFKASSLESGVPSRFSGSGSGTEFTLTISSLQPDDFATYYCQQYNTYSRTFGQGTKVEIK
Given back: 4
